Readings of viability, T/C for the listed compounds
System: 777334-354-R2-J4-PDC tumor spheroids with HUVEC/MSC, viability;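 note: spheroids exposed to compounds for 7 days before readout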
Protocol Description: Anticancer human tumor 777334-354-R2-J4-PDC patient-derived pancreatic adenocarcinoma cell line growth inhibition [GQUAD]
Condition Summary: second compound 3.16 µM; first compound 0.000999 µM; stronger effect = lower value
Use % as the unit, but write only the number.

# Compound, Units Text, Value Measured
records = [
    ("Cn1ncnc1[C@H]1c2n[nH]c(=O)c3cc(F)cc(c23)N[C@@H]1c1ccc(F)cc1 + Cc1cnc(CNC(=O)c2c(=O)c3ccc(N4CCCN(C)CC4)nc3n3c2sc2ccccc23)cn1", "%", 60.7),
    ("CCc1c2c(nc3ccc(O)cc13)-c1cc3c(c(=O)n1C2)COC(=O)[C@]3(O)CC + CN(C)c1ccc(Nc2c3ccc(NC(=O)CCN4CCCC4)cc3nc3cc(NC(=O)CCN4CCCC4)ccc23)cc1", "%", 74.9),
]

Kindly review the next compound as well.
Prompt line: Request the reported viability, T/C associated with CCc1c2c(nc3ccc(O)cc13)-c1cc3c(c(=O)n1C2)COC(=O)[C@]3(O)CC + Cc1cnc(CNC(=O)c2c(=O)c3ccc(N4CCCN(C)CC4)nc3n3c2sc2ccccc23)cn1
Response line: 49.5
